# System: LG0703-F948-PDC complex spheroid viability
# run-description: Anticancer human tumor LG0703-F948-PDC patient-derived lung adenocarcinoma cell line growth inhibition [RAS]; active = viability on the fitted dose curve at most 10% of control; inactive = the rest
# condition-summary: second compound 3.16 µM; first compound 10 µM
# From the text: RAS pathway inhibitors in Combinations in Complex Spheroids A high-throughput screen of multi-cell type tumor spheroids was designed to identify active combinations of RAS pathway inhibitors and targeted small molecules. Complex spheroids include a stromal component modeled by human endothelial cells (HUVEC) and fibroblasts modeled by human mesenchymal stem cells (MSCs). […] Compounds. […] If the clinical Cmax for an agent had not been determined, the highest concentration tested was 10 microM. […]
Choose the fitting class; nothing outside active, inactive is accepted.

[Q] Could you please tell me the result logged for NC1c2ccccc2OC12CCN(c1cnc3c(N4CCCc5ncccc54)n[nH]c3n1)CC2 (stereo unspecified) + C#Cc1c(F)ccc2cc(O)cc(-c3ncc4c(N5CC6CCC(C5)N6)nc(OCC56CCCN5CC(F)C6)nc4c3F)c12 in this assay?
[A] active

[Q] I would be grateful if you could indicate the recorded call for CC(Nc1ccc2c(c1)OCCn1cc(N3C(=O)OCC3C(F)F)nc1-2)C(N)=O (stereo unspecified) + C#Cc1c(F)ccc2cc(O)cc(-c3ncc4c(N5CC6CCC(C5)N6)nc(OCC56CCCN5CC(F)C6)nc4c3F)c12 .
[A] active

[Q] Hi team, can someone confirm the assay call for CC1(O)CCCC1n1c(=O)c(C(F)F)cc2cnc(NC3CCN(S(C)(=O)=O)CC3)nc21 (stereo unspecified) + C#Cc1c(F)ccc2cc(O)cc(-c3ncc4c(N5CC6CCC(C5)N6)nc(OCC56CCCN5CC(F)C6)nc4c3F)c12 ?
[A] inactive

[Q] Hi, sorry to bother you, what did the test record for C[C@@H](NC(=O)c1ncnc(N)c1Cl)c1ncc(C(=O)Nc2cc(C(F)(F)F)c(Cl)cn2)s1 + C#Cc1c(F)ccc2cc(O)cc(-c3ncc4c(N5CC6CCC(C5)N6)nc(OCC56CCCN5CC(F)C6)nc4c3F)c12 ?
[A] inactive

[Q] Tell me the recorded outcome of this test for Cc1nc(N2CCC3(CC2)COC(C)C3N)c(CO)nc1Sc1ccnc(N)c1Cl (stereo unspecified) + C#Cc1c(F)ccc2cc(O)cc(-c3ncc4c(N5CC6CCC(C5)N6)nc(OCC56CCCN5CC(F)C6)nc4c3F)c12 .
[A] active

[Q] Hey, what did the test say about CC(C)NCC(C(=O)N1CCN(c2ncnc3c2C(C)CC3O)CC1)c1ccc(Cl)cc1 (stereo unspecified) + C#Cc1c(F)ccc2cc(O)cc(-c3ncc4c(N5CC6CCC(C5)N6)nc(OCC56CCCN5CC(F)C6)nc4c3F)c12 ?
[A] active

* * *

# Tested on: LG0703-F948-PDC complex spheroid viability
# run-description: Anticancer human tumor LG0703-F948-PDC cell line growth inhibition [RAS];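 also: spheroids exposed to agents for 7 days; 100% = DMSO vehicle wells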
# condition-summary: second compound 0.000949 µM; first compound 1 µM; hits give low values
# Description: RAS pathway inhibitors in Combinations in Complex Spheroids A high-throughput screen of multi-cell type tumor spheroids was designed to identify active combinations of RAS pathway inhibitors and targeted small molecules. Complex spheroids include a stromal component modeled by human endothelial cells (HUVEC) and fibroblasts modeled by human mesenchymal stem cells (MSCs). […] Compounds. […] If the clinical Cmax for an agent had not been determined, the highest concentration tested was 10 microM. […]
quantity-kind: viability, T/C (%)
Numbers only; they are read as %.

# molecule, unit-annotation, observed-value
rows = [
    ("CC(=O)OC12COC1CC(O)C1(C)C(=O)C(O)C3=C(C)C(OC(=O)C(O)C(NC(=O)OC(C)(C)C)c4ccccc4)CC(O)(C(OC(=O)c4ccccc4)C21)C3(C)C (configuration not stated) + CCn1c(-c2cccnc2C(C)OC)c2c3cc(ccc31)N1CCOC(CC(NC(=O)C(C(C)C)N(C)C(=O)C3(F)CCN(C(=O)C#CC(C)(C)N(C)C)CC3)C(=O)N3CCCC(N3)C(=O)OCC(C)(C)C2)C1", "%", 39.4),
]

[Q] Given the molecule C=CC(=O)N1CCN(c2nc(OCC3CCCN3C)nc3c(F)c(-c4nc(N)cc(C)c4C(F)(F)F)c(Cl)cc23)C(C)C1 (configuration not stated) + CCn1c(-c2cc(N3CCN(C)CC3)cnc2C(C)OC)c2c3cc(ccc31)-c1csc(n1)CC(NC(=O)C1CC1C)C(=O)N1CCCC(N1)C(=O)OCC(C)(C)C2 , what is its reported viability, T/C?
[A] 62.6
